molecular target: BGL3 (Clavispora sp. NRRL Y-50464); construct: C-terminal His tag, vector pPICZalphaB, expressed in Pichia X33; partially purified by Ni-NTA; GH3; assay: pNPG hydrolysis, absorbance at […] nm; type: biochemical; conditions: product inhibition; substrate pNPG; 100 mM citrate buffer, optimal pH and temperature (pH 5, 55°C); read-out: K i (mM) (against glucose)
Sequence (A0A141S029 1-837): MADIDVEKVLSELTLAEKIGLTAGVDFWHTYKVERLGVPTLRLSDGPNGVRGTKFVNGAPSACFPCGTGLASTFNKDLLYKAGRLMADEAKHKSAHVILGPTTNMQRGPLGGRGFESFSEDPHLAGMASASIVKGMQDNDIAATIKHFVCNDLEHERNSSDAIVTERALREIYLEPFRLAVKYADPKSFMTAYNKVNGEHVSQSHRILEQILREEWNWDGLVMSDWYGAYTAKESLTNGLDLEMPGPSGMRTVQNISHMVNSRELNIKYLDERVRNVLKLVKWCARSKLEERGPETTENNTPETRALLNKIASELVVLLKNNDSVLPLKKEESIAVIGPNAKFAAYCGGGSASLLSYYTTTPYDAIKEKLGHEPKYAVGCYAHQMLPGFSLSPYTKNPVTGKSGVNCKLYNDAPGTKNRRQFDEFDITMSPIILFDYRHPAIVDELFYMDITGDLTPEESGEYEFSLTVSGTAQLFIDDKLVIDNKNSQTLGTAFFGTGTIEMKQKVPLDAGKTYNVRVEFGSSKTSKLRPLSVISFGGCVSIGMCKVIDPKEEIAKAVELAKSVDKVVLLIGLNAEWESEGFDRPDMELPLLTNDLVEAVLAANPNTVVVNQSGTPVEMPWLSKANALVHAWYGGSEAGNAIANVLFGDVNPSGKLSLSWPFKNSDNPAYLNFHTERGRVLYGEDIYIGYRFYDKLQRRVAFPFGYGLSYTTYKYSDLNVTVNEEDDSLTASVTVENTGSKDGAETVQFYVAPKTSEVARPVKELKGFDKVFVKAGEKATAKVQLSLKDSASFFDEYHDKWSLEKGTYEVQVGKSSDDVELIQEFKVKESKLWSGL
REPORTED_METRIC: Ki (mM)
Return type: number; implicit unit mM.

Any idea what Ki was measured for OC[C@H]1OC(O)[C@H](O)[C@@H](O)[C@@H]1O (stereo partly shown) ? 38.3

====

target: BGL2 (Clavispora sp. NRRL Y-50464); construct: C-terminal His tag, vector pPICZalphaA, expressed in Pichia X33; partially purified by Ni-NTA; GH3; assay: pNPG hydrolysis, absorbance at […] nm; assay type: biochemical; settings: product inhibition; substrate pNPG; 100 mM citrate buffer, optimal pH and temperature (pH 5, 50°C); read-out: K i (mM) (against glucose)
Sequence (A0A141S030 1-804): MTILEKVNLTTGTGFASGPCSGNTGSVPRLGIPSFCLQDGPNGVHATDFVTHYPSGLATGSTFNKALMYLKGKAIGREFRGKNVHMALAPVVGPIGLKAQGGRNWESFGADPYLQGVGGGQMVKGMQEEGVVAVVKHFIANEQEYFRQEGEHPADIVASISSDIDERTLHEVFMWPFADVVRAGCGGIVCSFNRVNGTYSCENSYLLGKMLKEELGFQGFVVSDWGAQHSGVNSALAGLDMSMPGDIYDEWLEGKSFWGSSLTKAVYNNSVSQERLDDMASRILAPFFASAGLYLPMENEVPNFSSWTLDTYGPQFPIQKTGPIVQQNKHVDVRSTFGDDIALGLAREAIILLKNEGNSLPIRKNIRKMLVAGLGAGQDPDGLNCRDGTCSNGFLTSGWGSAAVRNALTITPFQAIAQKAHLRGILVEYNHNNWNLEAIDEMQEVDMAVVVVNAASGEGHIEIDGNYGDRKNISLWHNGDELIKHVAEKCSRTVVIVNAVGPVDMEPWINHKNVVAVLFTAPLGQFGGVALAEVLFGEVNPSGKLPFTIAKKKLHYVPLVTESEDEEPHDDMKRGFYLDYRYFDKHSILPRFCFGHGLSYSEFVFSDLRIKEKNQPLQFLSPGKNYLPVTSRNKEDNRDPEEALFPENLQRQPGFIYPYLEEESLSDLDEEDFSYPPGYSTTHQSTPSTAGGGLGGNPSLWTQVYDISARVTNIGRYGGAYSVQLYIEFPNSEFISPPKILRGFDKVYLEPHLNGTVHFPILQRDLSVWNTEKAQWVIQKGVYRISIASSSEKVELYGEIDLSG
REPORTED_METRIC: Ki (mM)
Return type: number; implicit unit mM.

Any idea what Ki was measured for OC[C@H]1OC(O)[C@H](O)[C@@H](O)[C@@H]1O (stereo partly shown) ? 62
